- ASSAY_TARGET: Muscarinic acetylcholine receptor M2 (Homo sapiens) (UniProt P08172)
- Sequence (P08172 whole entry, looked up): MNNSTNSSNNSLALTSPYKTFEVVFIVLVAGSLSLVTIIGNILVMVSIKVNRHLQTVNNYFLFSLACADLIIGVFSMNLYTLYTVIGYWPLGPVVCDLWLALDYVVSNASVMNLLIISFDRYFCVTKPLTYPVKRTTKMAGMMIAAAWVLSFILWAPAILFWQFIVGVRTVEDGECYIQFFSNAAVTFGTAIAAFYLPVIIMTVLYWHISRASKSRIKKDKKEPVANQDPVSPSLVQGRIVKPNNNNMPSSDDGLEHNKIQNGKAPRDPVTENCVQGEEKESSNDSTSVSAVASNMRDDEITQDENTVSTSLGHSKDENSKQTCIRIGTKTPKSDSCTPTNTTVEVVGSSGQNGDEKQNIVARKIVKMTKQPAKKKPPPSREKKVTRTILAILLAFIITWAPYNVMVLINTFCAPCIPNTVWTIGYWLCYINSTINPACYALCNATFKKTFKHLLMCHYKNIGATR
- ASSAY_METHOD_TEXT: NVS_GPCR_hM2: NovaScreen (NVS) G Protein-Coupled Receptor Assay for human Muscarinic, M2 Receptor (AID 2283273)
Results filed as inconclusive are left out. Active and inactive are the calls of the source. The calls were made as follows: active = hit-call score of the fitted dose curve at least 0.9, where 1 is the maximum; inconclusive = response in the unintended direction; inactive = score below 0.9.
Can you answer with just one of these options? yes (active), no (inactive)

Cn1c(-c2ccccc2)cc(-c2ccccc2)[n+]1C : yes
Cc1cc(C)nc(Nc2ccccc2)n1 : yes
CC(C)(C)C(=O)C(Oc1ccc(Cl)cc1)n1cncn1 (configuration not stated) : yes
CCCCC(C#N)(Cn1cncn1)c1ccc(Cl)cc1 (configuration not stated) : yes
CCNP(=S)(OC)O/C(C)=C/C(=O)OC(C)C (configuration not stated) : no
CCCCC(O)(Cn1cncn1)c1ccc(Cl)cc1Cl (configuration not stated) : no

Okay, next one:
[Q] GET /call?item= CCCN(CC)CC1COC2(CCC(C(C)(C)C)CC2)O1 (configuration not stated) returns the recorded outcome of this test.
[A] yes
